- assayed system: human claudin 18.2 (CLDN18.2) (human)
- test name: cell-based or functional assay
attribute measured: EC50, ADCC Reporter Bioassay (luciferase, Jurkat FcγRIIIa V158/NFAT effector cells) (pM)

binder | obs value
175D10 (IMAB362; claudiximab) (antibody, V domains shown) VH: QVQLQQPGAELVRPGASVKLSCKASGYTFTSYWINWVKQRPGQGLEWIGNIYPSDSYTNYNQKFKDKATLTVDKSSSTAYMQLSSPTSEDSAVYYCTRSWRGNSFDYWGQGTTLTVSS VL: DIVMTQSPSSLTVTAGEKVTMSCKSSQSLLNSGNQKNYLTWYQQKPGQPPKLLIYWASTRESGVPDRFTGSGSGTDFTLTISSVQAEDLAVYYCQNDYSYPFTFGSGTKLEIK | 458
64G11B4 chimeric antibody (antibody, V domains shown) VH: QVQLHQSGTELVRPGTSVKVSCKASGYAFTNYLLEWVKQRPGQGLEWIGEINPGNGGSNYNEKFKGKATLTADKSSSTAYMQLSSLTSVDSAVYFCARIYYGNSFAYWGQGTLVTVSA VL: DIVMTQSPSSLTVTAGEKVTMNCKSSQSLLNSGNQRNYLTWYQQKPGQPPKLLIYWASTRESGVPDRFTGSGSGTDFTLTISSVQADDLAVYYCQNDYFYPFTFGAGTNLELK | 126
78E8G9G6 chimeric antibody (antibody, V domains shown) VH: QVQLKESGPGLVAPSQSLSITCTVSGFSLISYGVHWVRQPPGKGLEWLGVIWAGGRTNYNSALMSRLSISKDNSKSQVFLKMNSLQTYDTAMYYCARDRYGGNSLDYWGQGTSVTVSS VL: DIVMTQSPSSLTVTAGEKVTMNCRSIQSLLNSGNQKNYLSWYQQKPGQPPKLLIYWASTRESGVPDRFTGSGSGTDFTLTIRSVLDEDLAVYYCQNSYSYPFTFGSGTKLEMK | 15.9
103F6D3 chimeric antibody (antibody, V domains shown) VH: QVQLQQSGAELARPGASVKMSCKASGYTFPTYSIHWLKQGPGQGLEWIGYINPNTIYTNYNQKFKYKTTLTADKSSSTAYIQLSSLTSDDSAVYYCAREGYGRGNAMDYWGQGTSVTVSS VL: DIVMTQSPSSQTVTAGEKVTLSCRSSQSLLNGGNQKNYLTWYQQKPGQPPKLLIYWASTRESGVPDRFTGSGSGTYFTFTISSVQAEDLAVYYCQNAYFYPFTFGAGTKLELK | 79.5
12F1F4 chimeric antibody (antibody, V domains shown) VH: QVQLKESGPGLVAPSQSLSITCTVSGFSLINYGVSWVRQPPGKGLEWLGVIWGDGNTNYQSALRSRLSIRKDTSKSQVFLKLNSVHTDGTATYYCAKVGRGNAMDHWGQGISVIVSS VL: DIVMTQSPSSLTVTARERVSMTCKSSQSLFNSGNQRNYLTWYQQKPGQPPKLLIYWSSTRESGVPDRFTGSGSGTDFTLTISSVQAEDLAIYFCQNNYYYPFTFGSGTKLEIK | 36.8

Ref: patent US20230330253A1
